Data provenance: patent US20250312352A1

- System name: GLP-1R (Homo sapiens)
- Sequence (P43220 24-463): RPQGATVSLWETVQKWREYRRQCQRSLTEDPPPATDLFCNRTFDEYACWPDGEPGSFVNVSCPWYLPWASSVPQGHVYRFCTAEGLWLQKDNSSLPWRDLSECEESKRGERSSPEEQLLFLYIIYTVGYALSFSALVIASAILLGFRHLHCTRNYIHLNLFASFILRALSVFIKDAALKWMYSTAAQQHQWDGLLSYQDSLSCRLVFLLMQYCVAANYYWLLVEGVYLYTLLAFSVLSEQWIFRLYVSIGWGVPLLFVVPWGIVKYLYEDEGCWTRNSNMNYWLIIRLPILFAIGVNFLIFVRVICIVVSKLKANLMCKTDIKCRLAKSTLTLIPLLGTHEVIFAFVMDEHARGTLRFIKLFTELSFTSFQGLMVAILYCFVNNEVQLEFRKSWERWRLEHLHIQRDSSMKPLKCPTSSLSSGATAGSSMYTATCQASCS
- Test summary: GLP-1R activation cAMP assay (Assay 1 or Assay 2)
- Conditions: cAMP increase in CHO cells stably expressing GLP-1R; compounds run on one of the two cAMP assays
pEC50: −log10 of the molar value.
# pEC50 listing for each entry below

>  <Compound>
O=C(O)c1ccc2nc(Cc3c(F)cc(-c4cccc(OCc5ncc(C(F)(F)F)s5)n4)c(F)c3F)n(C[C@@H]3CCO3)c2c1 [Example 448]

>  <System name>
GLP-1R (Homo sapiens)

>  <pEC50>
9.93

$$$$
>  <Compound>
NC(=O)c1ccc(COc2nccc(-c3cc(F)c(Cc4nc5ccc(C(=O)O)cc5n4C[C@@H]4CCO4)cc3F)n2)c(OC(F)F)n1 [Example 223]

>  <System name>
GLP-1R (Homo sapiens)

>  <pEC50>
9.29

$$$$
>  <Compound>
CC1(C)COC[C@H]1n1c(Cc2cc(F)c(-c3ccc(F)c(OCc4ncc(C(F)(F)F)s4)n3)cc2F)nc2c(F)cc(C(=O)O)cc21 [Example 252]

>  <System name>
GLP-1R (Homo sapiens)

>  <pEC50>
10.12

$$$$
>  <Compound>
CC1(C)COCC1n1c(Cc2cc(F)c(-c3cccc(OCc4ncc(C(F)(F)F)s4)n3)cc2F)nc2c(F)cc(C(=O)O)cc21 (stereo not shown) [Example 437]

>  <System name>
GLP-1R (Homo sapiens)

>  <pEC50>
9.98

$$$$
>  <Compound>
Cn1nccc1-c1cnc(COc2cccc(-c3cc(F)c(Cc4nc5ccc(C(=O)O)cc5n4C[C@@H]4CCO4)cc3F)n2)s1 [Example 94]

>  <System name>
GLP-1R (Homo sapiens)

>  <pEC50>
8.54

$$$$
>  <Compound>
Cn1cc(C#Cc2ccc(COc3cccc(-c4cc(F)c(Cc5nc6ccc(C(=O)O)cc6n5C[C@@H]5CCO5)cc4F)n3)c(F)n2)cn1 [Example 362]

>  <System name>
GLP-1R (Homo sapiens)

>  <pEC50>
9.48

$$$$
>  <Compound>
CNC(=O)c1cc(Cl)c(COc2cccc(-c3cc(F)c(Cc4nc5ccc(C(=O)O)cc5n4CC4(CF)CC4)c(F)c3F)c2)cn1 [Example 451]

>  <System name>
GLP-1R (Homo sapiens)

>  <pEC50>
9.21

$$$$
>  <Compound>
Cn1cncc1C#Cc1ccc(COc2cccc(-c3cc(F)c(Cc4nc5ccc(C(=O)O)cc5n4C[C@@H]4CCO4)cc3F)n2)c(F)c1 [Example 142]

>  <System name>
GLP-1R (Homo sapiens)

>  <pEC50>
9.60

$$$$
>  <Compound>
O=C(O)c1ccc2nc(Cc3cc(F)c(-c4cccc(OCc5ccc(-c6cn([C@H]7CCOC7)nn6)cc5F)n4)cc3F)n(C[C@@H]3CCO3)c2c1 [Example 217]

>  <System name>
GLP-1R (Homo sapiens)

>  <pEC50>
9.57

$$$$
>  <Compound>
Cn1cc(C#Cc2cc(Cl)c(COc3cccc(-c4cc(F)c(Cc5nc6ccc(C(=O)O)cc6n5C[C@@H]5CCO5)cc4F)n3)cn2)cn1 [Example 300]

>  <System name>
GLP-1R (Homo sapiens)

>  <pEC50>
9.08

$$$$
>  <Compound>
O=C(O)c1ccc2nc(Cc3cc(F)c(-c4cccc(OCc5ccn(-c6ccccc6)n5)n4)cc3F)n(C[C@@H]3CCO3)c2c1 [Example 120]

>  <System name>
GLP-1R (Homo sapiens)

>  <pEC50>
8.55

$$$$
>  <Compound>
O=C(O)c1ccc2nc(Cc3cc(F)c(-c4cccc(OCc5cnc(Br)s5)n4)cc3F)n(C[C@@H]3CCO3)c2c1 [Example 21]

>  <System name>
GLP-1R (Homo sapiens)

>  <pEC50>
9.39

$$$$
>  <Compound>
O=C(O)c1cc(F)c2nc(Cc3cc(F)c(-c4ccc(F)c(OCc5ncc(-c6cnn(C(F)F)c6)s5)c4)cc3F)n(C[C@@H]3CCO3)c2c1 [Example 387]

>  <System name>
GLP-1R (Homo sapiens)

>  <pEC50>
10.02

$$$$
